Biological target: SMARCA2-HiBiT HeLa cells (protein which is expressed from the SMARCA2 gene) (Homo sapiens, UniProt P51531)
Construct: protein which is expressed from the SMARCA2 and SMARCA4 genes; host or cells: HeLa (SMARCA2-HiBiT engineered line)
Sequence (P51531 whole entry): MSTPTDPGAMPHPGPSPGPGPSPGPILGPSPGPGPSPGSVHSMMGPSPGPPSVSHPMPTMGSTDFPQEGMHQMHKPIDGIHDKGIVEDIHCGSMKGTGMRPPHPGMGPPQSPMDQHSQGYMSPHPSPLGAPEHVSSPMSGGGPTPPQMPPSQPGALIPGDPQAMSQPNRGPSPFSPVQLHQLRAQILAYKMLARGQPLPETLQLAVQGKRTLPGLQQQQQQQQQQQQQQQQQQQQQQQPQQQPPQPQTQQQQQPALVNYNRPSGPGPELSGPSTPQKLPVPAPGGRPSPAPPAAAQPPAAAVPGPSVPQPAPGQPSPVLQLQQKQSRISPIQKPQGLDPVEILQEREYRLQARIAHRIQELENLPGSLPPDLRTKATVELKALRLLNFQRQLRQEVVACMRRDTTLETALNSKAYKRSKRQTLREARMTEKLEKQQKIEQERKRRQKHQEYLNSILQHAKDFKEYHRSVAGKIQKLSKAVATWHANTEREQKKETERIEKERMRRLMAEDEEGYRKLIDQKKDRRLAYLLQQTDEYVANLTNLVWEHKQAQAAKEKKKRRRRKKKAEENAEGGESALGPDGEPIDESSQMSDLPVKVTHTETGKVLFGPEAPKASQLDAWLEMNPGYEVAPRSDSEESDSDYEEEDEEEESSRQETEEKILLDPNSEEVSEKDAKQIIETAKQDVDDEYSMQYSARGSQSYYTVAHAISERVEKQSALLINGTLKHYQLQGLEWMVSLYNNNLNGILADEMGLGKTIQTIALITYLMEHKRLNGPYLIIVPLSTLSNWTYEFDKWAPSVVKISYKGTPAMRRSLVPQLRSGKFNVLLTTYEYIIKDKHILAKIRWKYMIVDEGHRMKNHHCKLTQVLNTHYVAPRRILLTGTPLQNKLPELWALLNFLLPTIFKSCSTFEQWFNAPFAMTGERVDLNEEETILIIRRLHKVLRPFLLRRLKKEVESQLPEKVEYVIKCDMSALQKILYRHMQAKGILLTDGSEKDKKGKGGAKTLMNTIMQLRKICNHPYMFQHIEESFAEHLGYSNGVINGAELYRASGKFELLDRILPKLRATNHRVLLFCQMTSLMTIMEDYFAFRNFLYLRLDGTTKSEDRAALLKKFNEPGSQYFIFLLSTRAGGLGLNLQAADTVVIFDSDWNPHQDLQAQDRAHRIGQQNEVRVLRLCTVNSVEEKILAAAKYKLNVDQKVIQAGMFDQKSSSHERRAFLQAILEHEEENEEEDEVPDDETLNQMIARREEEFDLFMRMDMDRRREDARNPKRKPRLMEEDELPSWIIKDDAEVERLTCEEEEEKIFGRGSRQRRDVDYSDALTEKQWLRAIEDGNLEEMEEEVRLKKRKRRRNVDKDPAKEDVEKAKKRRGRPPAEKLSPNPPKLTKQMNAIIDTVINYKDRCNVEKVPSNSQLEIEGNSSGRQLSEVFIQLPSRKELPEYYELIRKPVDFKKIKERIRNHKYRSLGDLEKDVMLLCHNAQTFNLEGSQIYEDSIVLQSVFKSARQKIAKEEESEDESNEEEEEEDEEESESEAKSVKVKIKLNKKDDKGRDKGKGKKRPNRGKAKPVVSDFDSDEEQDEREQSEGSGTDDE
Test: SMARCA2 degradation assay (HiBiT-fusion HeLa cell line, 24 h, luminescence)
Format: cell-based
readoutType: DC50

Use the examples below as a reference point.
>>> testresult("CN(CC#Cc1nccc(N2CCCN(c3cc(-c4ccccc4O)nnc3N)CC2)n1)c1nc2ccccc2o1")
"< 0.05 µM"
>>> testresult("C[C@H]1CN(c2ccnc(C#CCn3ccnc3)n2)CCN1c1cc(-c2ccccc2O)nnc1N")
"0.05 to 0.5 µM"
>>> testresult("C/C=C/c1nccc(N2CCCN(c3cc(-c4ccccc4O)nnc3N)CC2)n1")
"0.05 to 0.5 µM"
>>> testresult("Cc1cc(C)n(CC#Cc2nccc(N3CCN(c4cc(-c5ccccc5O)nnc4N)CC[C@H]3C)n2)n1")
"0.05 to 0.5 µM"
>>> testresult("Nc1nnc(-c2ccccc2O)cc1N1CCN(c2ccnc(C#CCN3CCCCC3)n2)CC1")
"< 0.05 µM"

In one line, give reported DC50 of the entry Nc1nnc(-c2ccccc2O)cc1N1CCCN(c2ccnc(C#CCN3CCOC3=O)n2)CC1 . 0.05 to 0.5 µM

In one line, give reported DC50 of the entry Nc1nnc(-c2ccccc2O)cc1N1CCCN(c2ccnc(C#CCN3CC(F)(F)C3)n2)CC1 . 0.05 to 0.5 µM

In one line, give reported DC50 of the entry C[C@@H]1CCN(c2cc(-c3ccccc3O)nnc2N)CCN1c1ccnc(C#CCN2CC(F)(F)[C@H]2C)n1 . 0.05 to 0.5 µM

In one line, give reported DC50 of the entry COC/C=C/c1nccc(N2CCCN(c3cc(-c4ccccc4O)nnc3N)CC2)n1 . 0.05 to 0.5 µM

In one line, give reported DC50 of the entry C[C@@H]1CN(CC#Cc2nccc(N3CCCN(c4cc(-c5ccccc5O)nnc4N)CC3)n2)C[C@H](c2ccccc2)O1 . 0.5 to 5 µM

In one line, give reported DC50 of the entry Cc1ncsc1C(=O)NCC#Cc1nccc(N2CCN(c3cc(-c4ccccc4O)nnc3N)CC2)n1 . 0.05 to 0.5 µM

In one line, give reported DC50 of the entry C[C@@H]1CCN(c2cc(-c3ccccc3O)nnc2N)CCN1c1ccnc(C#CCN2CC[C@H]2CF)n1 . 0.05 to 0.5 µM

In one line, give reported DC50 of the entry CC(C)(O)C#Cc1nccc(N2CCCN(c3cc(-c4ccccc4O)nnc3N)CC2)n1 . 0.5 to 5 µM

----------
Molecular target: SMARCA2-HiBiT HeLa cells (protein which is expressed from the SMARCA2 gene) (Homo sapiens)
Construct: protein which is expressed from the SMARCA2 and SMARCA4 genes; host or cells: HeLa (SMARCA2-HiBiT engineered line)
Test: SMARCA2 degradation assay (HiBiT-fusion HeLa cell line, 24 h, luminescence)
Type: cell-based
Conditions: @ 1 μM
readoutType: SMARCA2 % Degradation @ 1 μM

>>> testresult("C[C@@H]1CCN(c2cc(-c3ccccc3O)nnc2N)CCN1c1ccnc(C#CCN2CC3CC(C2)O3)n1 [Compound P-179]")
"+++ (+++=>70%)"
>>> testresult("Nc1nnc(-c2ccccc2O)cc1N1CCCN(c2ccnc(C#CCn3ccnn3)n2)CC1 [Compound P-144]")
"+++ (+++=>70%)"
>>> testresult("C[C@@H]1CCN(c2cc(-c3ccccc3O)nnc2N)CCN1c1ccnc(C#CCN2CCC(C#N)C2)n1 (stereo partly drawn) [Compound P-245]")
"+++ (+++=>70%)"
>>> testresult("C[C@@H]1CCN(c2cc(-c3ccccc3O)nnc2N)CCN1c1ccnc(C#CCN2CC[C@@H](F)C2)n1 [Compound P-236]")
"++ (++=30-70%)"
>>> testresult("C[C@@H]1CCN(c2cc(-c3ccccc3O)nnc2N)CCN1c1ccnc(C#CCN2CCC3(CC2)COC3)n1 [Compound P-199]")
"+++ (+++=>70%)"

In one line, give reported SMARCA2 % Degradation @ 1 μM of the entry Nc1nnc(-c2ccccc2O)cc1N1CCCN(c2ccnc(C#CCn3ncc4ccncc43)n2)CC1 [Compound P-116] . +++ (+++=>70%)

In one line, give reported SMARCA2 % Degradation @ 1 μM of the entry C[C@@H]1CCN(c2cc(-c3ccccc3O)nnc2N)CCN1c1ccnc(C#CCN2CCC3(CCC3)C2)n1 [Compound P-237] . +++ (+++=>70%)

In one line, give reported SMARCA2 % Degradation @ 1 μM of the entry Nc1nnc(-c2ccccc2O)cc1N1CCCN(c2ccnc(C#CCN3C(=O)c4ccccc4C3=O)n2)CC1 [Compound P-375] . +++ (+++=>70%)

In one line, give reported SMARCA2 % Degradation @ 1 μM of the entry COC/C=C/c1nccc(N2CCN(c3cc(-c4ccccc4O)nnc3N)CC[C@H]2C)n1 [Compound P-170] . ++ (++=30-70%)

In one line, give reported SMARCA2 % Degradation @ 1 μM of the entry C[C@@H]1CCN(c2cc(-c3ccccc3O)nnc2N)CCN1c1ccnc(C#CCn2cncn2)n1 [Compound P-333] . ++ (++=30-70%)
